Please respond with reported pIC50 for every item in the list.
Please express pIC50 as -log10 of the molar concentration.

Ask: Write down the reported pIC50 of O=C1NCCn2c(CC3(c4cccc5ccccc45)CCCC3)nc(=O)c(O)c21 [drawing 722] , test system: influenza A virus (IAV) PA-Nter fragment (amino acids 1-209) (Influenza A virus).
Result: 6.80

Ask: Write down the reported pIC50 of CC(C)N1CCn2c(CC3(c4ccccc4)CCCC3)nc(=O)c(O)c2C1=O , test system: influenza A virus (IAV) PA-Nter fragment (amino acids 1-209) (Influenza A virus).
Result: 7.03

Ask: Write down the reported pIC50 of O=C1c2c(O)c(=O)nc(CC3(c4ccc(Cl)cc4)CCCC3)n2CCN1Cc1ccccc1 , test system: influenza A virus (IAV) PA-Nter fragment (amino acids 1-209) (Influenza A virus).
Result: 6.00

Ask: Write down the reported pIC50 of O=C1c2c(O)c(=O)nc(CC3(c4ccc(Cl)cc4)CCCC3)n2CCN1C1CCOCC1 , test system: influenza A virus (IAV) PA-Nter fragment (amino acids 1-209) (Influenza A virus).
Result: 7.22

Ask: Write down the reported pIC50 of CC(N1CCn2c(CC3(c4ccc(Cl)cc4)CCCC3)nc(=O)c(O)c2C1=O)C(F)(F)F (stereo not shown) , test system: influenza A virus (IAV) PA-Nter fragment (amino acids 1-209) (Influenza A virus).
Result: 6.53

Ask: Write down the reported pIC50 of O=C1c2c(O)c(=O)nc(CC3(n4ccc5cccnc54)CCCC3)n2CCN1C1COC1 , test system: influenza A virus (IAV) PA-Nter fragment (amino acids 1-209) (Influenza A virus).
Result: 6.97

Ask: Write down the reported pIC50 of CC(C)N1CCn2c(Cc3ccccc3-c3ccc(C(F)(F)F)cc3)nc(=O)c(O)c2C1=O , test system: influenza A virus (IAV) PA-Nter fragment (amino acids 1-209) (Influenza A virus).
Result: 6.49

Ask: Write down the reported pIC50 of CSc1ccc(-c2ccccc2Cc2nc(=O)c(O)c3n2CCN(C(C)C)C3=O)cc1 , test system: influenza A virus (IAV) PA-Nter fragment (amino acids 1-209) (Influenza A virus).
Result: 6.94

Ask: Write down the reported pIC50 of CC(C)N1CCn2c(Cc3ccc(Cl)cc3-c3cccnc3)nc(=O)c(O)c2C1=O , test system: influenza A virus (IAV) PA-Nter fragment (amino acids 1-209) (Influenza A virus).
Result: 7.09

Ask: Write down the reported pIC50 of O=C1c2c(O)c(=O)nc(CC3(c4ccccc4)CCCC3)n2CCN1C1CCOCC1 , test system: influenza A virus (IAV) PA-Nter fragment (amino acids 1-209) (Influenza A virus).
Result: 7.37

Ask: Write down the reported pIC50 of CC(C)N1CCn2c(CC3(c4ccc(Cl)cc4)CCCC3)nc(=O)c(O)c2C1=O , test system: influenza A virus (IAV) PA-Nter fragment (amino acids 1-209) (Influenza A virus).
Result: 6.60
